# testName: qHTS assay to identify small molecule antagonists of the estrogen related receptor signaling pathway with the pleiotropic PPARgamma coactivator (PGC) from Tox21 10K library (AID 1224841); also: actives are mostly falling curves and most rising ones were filed inactive; nearly all actives have a fitted effect of over 50% in size
# measurementContext: PGC/ERR reporter cell line, ONE-Glo luciferase, 18 h; series mostly up to 92.4 µM
Records with an inconclusive call do not appear. The source made the active and inactive calls. No rule for the calls is given here.
Entry note: the call must match one of true (1) = active, false (0) = inactive

> print(dat)
          compound   category
1  Nc1ccc2ccccc2c1  false (0)

Task item: Check the results log: what was the call for CC(C)Nc1nc(Cl)nc(NC(C)C)n1 ?
Reply: false (0)

Task item: Called result for Clc1cccc(Cl)c1
Reply: false (0)

Task item: Kindly provide the recorded test outcome for the following compound: COc1ccc(C=O)cc1OC
Reply: false (0)

Task item: Hello, I am checking results. What call was entered for N#CC(c1ccccc1)c1ccccc1 ?
Reply: false (0)

Task item: // return assay outcome for CC(C)(c1ccccc1)c1ccc(O)c(C(C)(C)c2ccccc2)c1
Reply: true (1)

Task item: Could you please tell me the result logged for O=C1Nc2ccc(Cl)cc2C(c2ccccc2)=NC1O (stereo not given) in this assay?
Reply: false (0)

Task item: Test call for this compound, please: N#Cc1cccnc1
Reply: false (0)

Task item: Write down the call the test reported for this compound. Item: O=[N+]([O-])c1ccc(Nc2ccccc2)cc1
Reply: false (0)

Task item: What outcome does the record of this test show for O=[N+]([O-])/N=C1\NCCN1Cc1ccc(Cl)nc1 ?
Reply: false (0)

Task item: Lab log entry: CCNCC — outcome as called in the assay?
Reply: false (0)

Task item: Which outcome did this test record for the compound CCCCC(C#N)(Cn1cncn1)c1ccc(Cl)cc1 (stereo not given) ?
Reply: false (0)

Task item: Please share the test call associated with CCOP(=O)(OCC)OCC .
Reply: false (0)

Task item: Would you mind telling me which call this test gave CCCCOCCOC(C)=O ?
Reply: false (0)

Task item: Test call for this compound, please: CCC1(c2ccc(N)cc2)CCC(=O)NC1=O (stereo not given)
Reply: false (0)

All values here come from PubChem BioAssay (Tox21).
